Assayed System: T1, human Nectin4-Fc fusion protein (human, UniProt Q96NY8 32-349)
T1 construct: Recombinant protein coated in the scFv ELISA and captured on the anti-hFc chip in the scFv SPR; also called recombinant Nectin4-Fc fusion protein; human Nectin4-Fc protein; not shown: Fc part
T1 sequence (looked up): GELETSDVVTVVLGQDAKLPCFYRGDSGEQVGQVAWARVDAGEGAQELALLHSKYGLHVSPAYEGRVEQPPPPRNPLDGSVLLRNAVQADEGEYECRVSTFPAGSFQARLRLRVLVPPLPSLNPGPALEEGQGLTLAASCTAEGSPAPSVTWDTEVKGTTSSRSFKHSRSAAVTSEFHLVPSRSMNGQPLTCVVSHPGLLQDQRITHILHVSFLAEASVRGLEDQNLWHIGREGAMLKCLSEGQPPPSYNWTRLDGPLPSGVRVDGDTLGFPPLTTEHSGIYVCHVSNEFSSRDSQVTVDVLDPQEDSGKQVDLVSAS
Test Details: SPR Biacore T200, Nectin4-Fc captured on anti-hFc chip, scFv injected
Value Type: Kd (nM)

# Binder, Number
measured = [
    ("2020EP034-B09 scFv (scFv, V domains shown) VH: EVQLVQSGAEVKKPGASVKVSCKASGYTFTGYYMHWVRQAPGQGLEWMGRINPNSGGTNYAQKFQGRVTMTRDTSISTAYMELSGLRSDDTAVYFCARVTYNIGWYIDYWGQGTLVTVSS VL: QAVVTQPPSVSVAPGKTATITCGGNNIGSKGVHWYQQKPGQAPVLVIYYDTDRPSGIPERLSGSNSGNTATLTISRVEAGDEADYYCQVWDSSSDHPVFGGGTKLTVL", 1.47),
    ("2021EP030-C11 scFv (scFv, V domains shown) VH: QMQLVQSKPEVKKPGTSVKVSCKASGFTFTSSAVQWVRQARGQRLEWIGWIVVGSGNTNYAQKFQERVTITRDMSTSTAYMELSSLRSEDTAVYYCAADGDYDIEGALDYWGQGTLVTVSS VL: EIVLTQSPAILSLSPGERATLSCRASQSVSSYLAWYQQKPGQAPRLLIYDASNRATGIPARFSGSGSGTDFTLTISSLEPEDFAVYYCQQRSNWITFGGGTKVEIK", 55.5),
    ("2021EP030-F02 scFv (scFv, V domains shown) VH: QVQLQESGPGLVKPSETLSLTCTVSGGSISSSSYYWGWIRQPPGKGLEWIGSIYYSGSTYYNPSLKSRVTISVDTSKNQFSLKLSSVTAADTAVYYCARQANQVVPAAIPWAKPGGTPPNWFDPWGQGTLVTVSS VL: QLVLTQPPSVSVAPGETARITCGGNNIGSKSVHWYQQKPGQAPVLVIYYDSARPSGIPERVSGSNSGNTATLTISRVEAGDEADYYCQVWDSSSDHPRVFGTGTKLTVL", 1.85),
    ("2021EP023-D06 scFv (scFv, V domains shown, Purified scFv with C-terminal flag and 6xHis tag) VH: QVQLVESGAEVKKPGSSVKVSCKASGGTFSSYAISWVRQAPGQGLEWMGGIIPIFGTANYAQKFQGRVTITADESTSTAYMELSSLRSEDTAVYYCARSRPVRGAYYWGQGTLVTVSS VL: DIQMTQSPSSLSASVGDRVTITCRASQIVNSNYLNWYQQKPGKAPNLLIYGVSNLQVGVPSRFSGSGSGTDFTLSISSLQVEDSATYYCQQSYTTPRYSFGQGTKLEIRR", 0.407),
]
